Recorded values, source PubChem BioAssay AID434994.

So I've got a bunch of compounds here, and I need their superoxide response (% of plate) values.
Test: retest of yeast aging ROS inhibitors – cherry picked compounds, confirmation (AID 434994);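 further: cells aged with compound for 7 days at 30 degrees C before staining; 100% equals mean DHE fluorescence of all compound wells on the plate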
Conditions: S. cerevisiae aging, superoxide DHE fluorescence; at 10 µM; active compounds read low
The other results are listed elsewhere or left out.
Reply with just the number (in %).

-- ask Consider the compound `CC(C)(C)NC(=O)COc1ccc(CNc2ccc3[nH]c(=O)[nH]c3c2)cc1` and give its measured superoxide response (% of plate).
-- reply 96.2

-- ask Same again, this time with `CCn1c2ccccc2c2cc(NC(=O)CNC)ccc21`
-- reply 107

-- ask // repeat for `Cc1ccc(C23CC4CC(CC(C(=O)NCC(=O)O)(C4)C2)C3)cc1` and report
-- reply 106

-- ask Another compound: `CNC(=O)c1cccc2nc3ccccc3nc12`
-- reply 79.8

-- ask Can you handle CC(=O)NC1=NN(C(C)=O)C(C)(CCS(=O)(=O)c2ccc(Cl)c(Cl)c2)S1 (stereo unspecified) next?
-- reply 101

-- ask Same thing, different compound: `Cc1ccc(NC(=O)Cn2nc(C)c3ccccc3c2=O)c(C)c1`
-- reply 114

-- ask // same read-out, input: `COc1cc(-c2nnn(CC(=O)NCc3ccccc3)n2)cc(OC)c1OC`
-- reply 100

-- ask Repeat with `Cc1ccccc1NC(=O)NCC1CCN(Cc2cccc(Cl)c2)CC1`
-- reply 94.6

-- ask Lookup `COc1ccc(NC(C)=O)cc1NC(=O)CN1CCN(c2ccccn2)CC1`
-- reply 103

-- ask Can you handle CCCC(C)C(=O)OCC(=O)Nc1c(Br)cc(C)cc1Br (stereo unspecified) next?
-- reply 101

-- ask Similarly, `O=C(CSCc1ccccc1)Nc1ccccc1` ?
-- reply 107
